Entries and their YAP1 (% UTC) values follow.
Tested on: Yap1 mRNA
protocolSummary: Antisense inhibition of human Yap1 in A-431 cells by cEt gapmers, single dose (Example 3, RTS36584)
Format: cell-based
protocolConditions: Table 9; A-431 cells, 5,000 cells per well, free uptake, 2,000 nM, approximately 48 hours; RTS36584; normalized to RIBOGREEN; Yap1 mRNA relative to untreated control cells
Strand notation (5' to 3'): a small letter for the sugar, then the base; units joined by * are phosphorothioate-linked, units joined directly phosphodiester-linked; [ ] holds rarer units or linkages, { } end groups; capitals alone tell only the bases. k = constrained ethyl (cEt); [5mC] = 5-methylcytosine; d = 2'-deoxy (DNA)
Number in % UTC, nothing else.

Answered examples (7):
# substance, systemUnderTest, unitAnnotation, measuredNumber
measured = [
    ("958811 (k[5mC]*kA*k[5mC]*dT*dG*dA*dG*dG*d[5mC]*dA*d[5mC]*dG*dG*k[5mC]*k[5mC]*k[5mC]; antisense) [Compound 958811]", "Yap1 mRNA", "% UTC", 92),
    ("958656 (kA*k[5mC]*kG*d[5mC]*dA*dA*dT*d[5mC]*dT*dG*dT*dG*dA*kT*k[5mC]*k[5mC]; antisense) [Compound 958656]", "Yap1 mRNA", "% UTC", 48),
    ("958806 (kT*kG*k[5mC]*d[5mC]*dT*dA*dG*dG*dG*dT*dT*d[5mC]*dT*kG*kT*kG; antisense) [Compound 958806]", "Yap1 mRNA", "% UTC", 30),
    ("958741 (antisense kG*kT*kT*dA*d[5mC]*dT*dG*d[5mC]*dA*dA*d[5mC]*dT*dG*k[5mC]*k[5mC]*k[5mC]) [Compound 958741]", "Yap1 mRNA", "% UTC", 14),
    ("958691 (antisense kT*k[5mC]*kA*dG*dT*dT*dG*dG*d[5mC]*dA*dA*d[5mC]*dA*kG*kT*k[5mC]) [Compound 958691]", "Yap1 mRNA", "% UTC", 20),
    ("958781 (antisense kG*kT*k[5mC]*dA*dT*d[5mC]*dT*dA*dT*dG*dT*dG*dT*k[5mC]*k[5mC]*kT) [Compound 958781]", "Yap1 mRNA", "% UTC", 6),
    ("958816 (kG*kT*kG*dA*dT*dA*dA*d[5mC]*dA*dT*dA*dT*d[5mC]*k[5mC]*k[5mC]*kA; antisense) [Compound 958816]", "Yap1 mRNA", "% UTC", 71),
]

Okay, now this substance:
Returns the measured YAP1 (% UTC) for the input substance. Input: 958786 (antisense kT*kA*kT*dG*dT*d[5mC]*d[5mC]*dT*dA*d[5mC]*dT*dT*dT*k[5mC]*k[5mC]*k[5mC]) [Compound 958786]
10
